The values you see were collected from ChEMBL document CHEMBL4732143.

target: Sphingosine kinase 2 (Homo sapiens); test: Inhibition of recombinant human Sphk2 expressed in baculovirus infected Sf9 insect cells assessed as residual activity at 0.3 uM using d-erythro-sphingosine as substrate measured after 20 mins in presence of [gamma-32P]ATP by liquid scintillation counting analysis relative to control
Sequence (Q9NRA0 whole entry): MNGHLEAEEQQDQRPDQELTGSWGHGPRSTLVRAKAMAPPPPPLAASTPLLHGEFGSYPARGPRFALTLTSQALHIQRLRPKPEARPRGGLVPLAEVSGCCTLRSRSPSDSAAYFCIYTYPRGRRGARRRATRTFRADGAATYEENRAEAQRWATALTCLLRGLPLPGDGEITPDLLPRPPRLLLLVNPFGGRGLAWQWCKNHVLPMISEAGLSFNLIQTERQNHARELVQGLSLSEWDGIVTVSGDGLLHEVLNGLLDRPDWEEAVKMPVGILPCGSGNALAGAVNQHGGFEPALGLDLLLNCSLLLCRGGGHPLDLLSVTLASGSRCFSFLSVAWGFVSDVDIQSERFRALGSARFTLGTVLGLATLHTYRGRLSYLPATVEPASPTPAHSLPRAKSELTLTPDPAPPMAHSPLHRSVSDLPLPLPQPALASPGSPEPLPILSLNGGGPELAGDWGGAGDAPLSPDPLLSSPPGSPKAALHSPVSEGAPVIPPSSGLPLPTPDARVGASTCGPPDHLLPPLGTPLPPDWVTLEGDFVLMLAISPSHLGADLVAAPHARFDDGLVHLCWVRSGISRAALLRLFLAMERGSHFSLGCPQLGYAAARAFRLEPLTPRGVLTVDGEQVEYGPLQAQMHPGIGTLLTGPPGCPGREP
Everything with Activity lower than 80% is No; everything else, including exactly 80%, is Yes.

[
  {
    "Compound structure": "CCCCCCCn1ccc2cc(-c3noc([C@@H]4CCCN4C(=N)N)n3)ccc21",
    "Category label": "Yes"
  },
  {
    "Compound structure": "CCCCCCCCn1ccc2c(-c3noc([C@@H]4CCCN4C(=N)N)n3)cccc21",
    "Category label": "Yes"
  },
  {
    "Compound structure": "CCCCCCCCn1ccc2cc(-c3noc([C@@H]4CCCN4C(=N)N)n3)ccc21",
    "Category label": "Yes"
  }
]

Q) Kindly determine if Activity recorded for CCCCCCCCCn1ccc2cc(-c3noc([C@@H]4CCCN4C(=N)N)n3)ccc21 is above or exactly 80%.
A) No

Q) Kindly determine if Activity recorded for CCCCCCCn1cc(-c2noc([C@@H]3CCCN3C(=N)N)n2)c2ccccc21 is above or exactly 80%.
A) Yes

Q) Kindly determine if Activity recorded for CCCCCCCn1ccc2c(-c3noc([C@@H]4CCCN4C(=N)N)n3)cccc21 is above or exactly 80%.
A) Yes

Q) Kindly determine if Activity recorded for CCCCCCCCCCn1ccc2cc(-c3noc([C@@H]4CCCN4C(=N)N)n3)ccc21 is above or exactly 80%.
A) No

Q) Kindly determine if Activity recorded for CCCCCCCCCn1ccc2c(-c3noc([C@@H]4CCCN4C(=N)N)n3)cccc21 is above or exactly 80%.
A) No

Q) Kindly determine if Activity recorded for CCCCCCn1ccc2cc(-c3noc([C@@H]4CCCN4C(=N)N)n3)ccc21 is above or exactly 80%.
A) No

* * *

target: Sphingosine kinase 2 (Homo sapiens) (UniProt Q9NRA0); test: Inhibition of recombinant human Sphk2 expressed in baculovirus infected Sf9 insect cells assessed as residual activity at 0.3 uM using d-erythro-sphingosine as substrate measured after 20 mins in presence of [gamma-32P]ATP by liquid scintillation counting analysis relative to control
Observation type: Activity
Answer shape: numeric part, then the unit.

Example results:
[
  {
    "Compound structure": "CCCCCCCCCn1cc(-c2noc(C[C@@H]3CCCN3C(=N)N)n2)c2ccccc21",
    "Activity": "98%"
  },
  {
    "Compound structure": "CCCCCCCCn1cc(-c2noc([C@@H]3CCCN3C(=N)N)n2)c2ccccc21",
    "Activity": "73%"
  },
  {
    "Compound structure": "CCCCCCCCCCn1cc(-c2noc([C@@H]3CCCN3C(=N)N)n2)c2ccccc21",
    "Activity": "47%"
  },
  {
    "Compound structure": "CCCCCCCCn1ccc2ccc(-c3noc([C@@H]4CCCN4C(=N)N)n3)cc21",
    "Activity": "93%"
  },
  {
    "Compound structure": "CCCCCCCCCCn1ccc2c(-c3noc([C@@H]4CCCN4C(=N)N)n3)cccc21",
    "Activity": "64%"
  }
]

Q) Identify measured Activity corresponding to CCCCOc1ccc2cc(-c3noc([C@@H]4CCCN4C(=N)N)n3)ccc2c1
A) 95%

Q) Identify measured Activity corresponding to CCCCCCCCCCCn1cc(-c2noc([C@@H]3CCCN3C(=N)N)n2)c2ccccc21
A) 79%

Q) Identify measured Activity corresponding to CCCCCCCCCn1cc(-c2noc([C@@H]3CCCN3C(=N)N)n2)c2ccccc21
A) 59%

Q) Identify measured Activity corresponding to CCCCCCCCCCn1ccc2ccc(-c3noc([C@@H]4CCCN4C(=N)N)n3)cc21
A) 68%

Q) Identify measured Activity corresponding to CCCCCCCn1ccc2ccc(-c3noc([C@@H]4CCCN4C(=N)N)n3)cc21
A) 103%

Q) Identify measured Activity corresponding to CCCCCCCCCCCCn1cc(-c2noc([C@@H]3CCCN3C(=N)N)n2)c2ccccc21
A) 46%

* * *

target: Sphingosine kinase 2 (Homo sapiens); test: Inhibition of recombinant human Sphk2 expressed in baculovirus infected Sf9 insect cells using d-erythro-sphingosine as substrate measured after 20 mins in presence of [gamma-32P]ATP by liquid scintillation counting analysis
# key: entry, value: log10(Ki)
Friendly reminder: values = log10 of Ki, unit nM.

[
  {
    "Compound structure": "CCCCCCCCCn1ccc2cc(-c3noc([C@@H]4CCCN4C(=N)N)n3)ccc21",
    "log10(Ki)": 1.95
  },
  {
    "Compound structure": "CCCCCCCCCCn1cc(-c2noc([C@@H]3CCCN3C(=N)N)n2)c2ccccc21",
    "log10(Ki)": 2.48
  },
  {
    "Compound structure": "CCCCOc1ccc2cc(-c3noc([C@@H]4CCCN4C(=N)N)n3)ccc2c1",
    "log10(Ki)": 2.99
  }
]

Q) Please tell me the measured log10(Ki) for CCCCCCCCCCn1ccc2cc(-c3noc([C@@H]4CCCN4C(=N)N)n3)ccc21 ; system: Sphingosine kinase 2 (Homo sapiens).
A) 2.08

Q) Please tell me the measured log10(Ki) for CCCCCCCCCCCCn1cc(-c2noc([C@@H]3CCCN3C(=N)N)n2)c2ccccc21 ; system: Sphingosine kinase 2 (Homo sapiens).
A) 2.46
